- STUDY_TARGET: Histamine H1 receptor (Rattus norvegicus, UniProt P31390)
- Sequence (P31390 whole entry): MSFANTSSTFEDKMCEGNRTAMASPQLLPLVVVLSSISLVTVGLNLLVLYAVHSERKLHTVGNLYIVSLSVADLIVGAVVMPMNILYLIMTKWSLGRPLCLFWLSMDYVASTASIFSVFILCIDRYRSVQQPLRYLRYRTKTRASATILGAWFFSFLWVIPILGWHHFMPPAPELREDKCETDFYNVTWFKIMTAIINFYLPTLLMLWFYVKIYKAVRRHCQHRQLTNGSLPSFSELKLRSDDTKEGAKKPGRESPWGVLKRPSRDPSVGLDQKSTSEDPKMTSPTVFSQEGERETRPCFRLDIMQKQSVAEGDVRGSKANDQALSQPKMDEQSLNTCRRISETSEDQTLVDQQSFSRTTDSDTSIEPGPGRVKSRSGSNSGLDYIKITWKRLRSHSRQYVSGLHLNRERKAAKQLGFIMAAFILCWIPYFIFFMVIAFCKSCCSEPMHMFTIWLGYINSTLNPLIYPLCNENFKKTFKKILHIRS
MEASUREMENT_LABEL: Ki (nM)

P: Cn1c(=O)sc2cc(CCN3CCN(Cc4ccc(Cl)c(Cl)c4)CC3)ccc21
Q: Cn1c(=O)sc2cc(CCN3CCN(Cc4ccc(Cl)cc4Cl)CC3)ccc21
R: Cn1c(=O)sc2cc(CCN3CCC(Cc4ccccc4)CC3)ccc21
stdin: Please rank these compounds by Ki in descending order. List the labels, following the order given in the request.
stdout: P, Q, R
(P: 40 nM, Q: 10 nM, R: 3 nM)

* * *

- STUDY_TARGET: Muscarinic acetylcholine receptor M1 (Rattus norvegicus)
- MEASUREMENT_PROTOCOL: In vitro binding affinity towards Muscarinic acetylcholine receptor M1 by displacing [3H]- telenzepine from rat brain membrane
MEASUREMENT_LABEL: Ki (nM)

Please review the following examples before continuing.
Cn1c(=O)sc2cc(CCN3CCC(Cc4ccccc4)CC3)ccc21 :: 100
Cn1c(=O)sc2cc(CCN3CCN(Cc4ccc(Cl)c(Cl)c4)CC3)ccc21 :: 1000
Cn1c(=O)sc2cc(CCN3CCN(Cc4ccccc4)CC3)ccc21 :: 500

A: Cn1c(=O)sc2cc(CCCCN3CCN(Cc4ccc(Cl)c(Cl)c4)CC3)ccc21
B: Cn1c(=O)sc2cc(CCN3CCC(c4ccccc4)CC3)ccc21
C: Cn1c(=O)sc2cc(CCCCN3CCN(Cc4ccccc4)CC3)ccc21
stdin: Rank entries according to their Ki, from the largest number down. List the labels, following the order given in the request.
stdout: C, B, A
(C: 10000 nM, B: 1000 nM, A: 500 nM)

* * *

- STUDY_TARGET: D(2) dopamine receptor (Rattus norvegicus, UniProt P61169)
- Sequence (P61169 whole entry): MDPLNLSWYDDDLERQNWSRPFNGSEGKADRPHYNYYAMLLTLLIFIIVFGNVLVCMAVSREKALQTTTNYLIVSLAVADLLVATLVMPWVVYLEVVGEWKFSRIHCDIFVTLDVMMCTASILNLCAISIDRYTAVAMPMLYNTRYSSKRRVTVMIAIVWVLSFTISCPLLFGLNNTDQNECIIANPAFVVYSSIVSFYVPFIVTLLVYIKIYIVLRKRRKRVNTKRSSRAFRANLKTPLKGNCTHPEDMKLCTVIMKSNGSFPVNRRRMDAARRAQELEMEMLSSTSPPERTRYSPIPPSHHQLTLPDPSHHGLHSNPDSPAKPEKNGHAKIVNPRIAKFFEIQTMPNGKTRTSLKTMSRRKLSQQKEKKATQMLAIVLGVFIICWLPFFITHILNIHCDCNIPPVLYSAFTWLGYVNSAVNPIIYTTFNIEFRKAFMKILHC
- MEASUREMENT_PROTOCOL: Displacement of [3H]- raclopride from rat striatum Dopamine receptor D2
pKi: −log10 of the molar value.
MEASUREMENT_LABEL: pKi

Please review the following examples before continuing.
Cn1c(=O)sc2cc(CCCCN3CCC(Cc4ccccc4)CC3)ccc21 :: 7.00
Cn1c(=O)sc2cc(CCN3CCN(Cc4ccc(Cl)cc4Cl)CC3)ccc21 :: 7.00
Cn1c(=O)sc2cc(CCN3CCC(c4ccccc4)CC3)ccc21 :: 6.00
Cn1c(=O)sc2cc(CCCCN3CCN(Cc4ccc(Cl)cc4Cl)CC3)ccc21 :: 7.00
Cn1c(=O)sc2cc(CCCCN3CCN(Cc4ccccc4)CC3)ccc21 :: 5.00

I: Cn1c(=O)sc2cc(CCCCN3CCC(c4ccccc4)CC3)ccc21
II: Cn1c(=O)sc2cc(CCN3CCN(Cc4ccc(Cl)c(Cl)c4)CC3)ccc21
III: Cn1c(=O)sc2cc(CCCCN3CCN(Cc4ccc(Cl)c(Cl)c4)CC3)ccc21
stdin: Rank entries according to their pKi, from the largest number down. List the labels, following the order given in the request.
stdout: I, III, II

* * *

- STUDY_TARGET: Sigma non-opioid intracellular receptor 1 (Homo sapiens)
- MEASUREMENT_PROTOCOL: In vitro binding affinity towards Sigma opioid receptor type 1 by using [3H]- (+)-pentazocine as radioligand
MEASUREMENT_LABEL: Ki (nM)

Cn1c(=O)sc2cc(CCCCN3CCN(Cc4ccccc4)CC3)ccc21 :: 37.2

A: Cn1c(=O)sc2cc(CCCCN3CCN(Cc4ccc(Cl)c(Cl)c4)CC3)ccc21
B: Cn1c(=O)sc2cc(CCN3CCC(c4ccccc4)CC3)ccc21
stdin: Dear colleague, could you let me know whether A or B has the lower recorded Ki? Thanks. Respond using the label that marks the chosen record.
stdout: B
(B: 20 nM, A: 139 nM)

* * *

- STUDY_TARGET: 5-hydroxytryptamine receptor 1A (Rattus norvegicus)
- Sequence (P19327 whole entry): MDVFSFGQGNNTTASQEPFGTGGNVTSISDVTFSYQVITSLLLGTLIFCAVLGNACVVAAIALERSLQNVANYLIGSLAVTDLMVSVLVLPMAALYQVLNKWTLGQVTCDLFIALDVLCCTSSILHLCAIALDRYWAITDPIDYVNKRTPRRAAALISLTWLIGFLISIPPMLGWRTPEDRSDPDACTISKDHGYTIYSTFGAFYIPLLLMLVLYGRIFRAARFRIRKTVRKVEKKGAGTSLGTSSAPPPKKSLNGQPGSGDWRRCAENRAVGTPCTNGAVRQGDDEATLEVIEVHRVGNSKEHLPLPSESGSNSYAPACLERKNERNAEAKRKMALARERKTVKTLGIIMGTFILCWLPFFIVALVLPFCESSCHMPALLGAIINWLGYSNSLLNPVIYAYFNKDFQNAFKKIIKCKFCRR
MEASUREMENT_LABEL: Ki (nM)

Cn1c(=O)sc2cc(CCN3CCC(c4ccccc4)CC3)ccc21 :: 4

I: Cn1c(=O)sc2cc(CCN3CCC(Cc4ccccc4)CC3)ccc21
II: Cn1c(=O)sc2cc(CCCCN3CCC(Cc4ccccc4)CC3)ccc21
III: Cn1c(=O)sc2cc(CCCCN3CCN(Cc4ccc(Cl)cc4Cl)CC3)ccc21
stdin: Arrange the 3 entries by Ki so the values rise. List the labels, following the order given in the request.
stdout: I, II, III

* * *

- STUDY_TARGET: Sigma non-opioid intracellular receptor 1 (Homo sapiens, UniProt Q99720)
- Sequence (Q99720 whole entry): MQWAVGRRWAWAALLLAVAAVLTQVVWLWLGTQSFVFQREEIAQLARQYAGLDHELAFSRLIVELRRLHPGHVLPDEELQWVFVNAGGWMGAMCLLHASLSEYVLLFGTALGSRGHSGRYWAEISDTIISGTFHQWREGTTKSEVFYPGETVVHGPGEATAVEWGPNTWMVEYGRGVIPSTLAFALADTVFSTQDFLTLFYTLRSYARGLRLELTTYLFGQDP
- MEASUREMENT_PROTOCOL: In vitro binding affinity for Sigma opioid receptor by displacement of [3H]DTG
pKi: −log10 of the molar value.
MEASUREMENT_LABEL: pKi

Please review the following examples before continuing.
C[C@@H]1CN(CCc2ccc3c(c2)sc(=O)n3C)C[C@H](C)N1 :: 5.70
Cn1c(=O)sc2cc(CCN3CCC(Cc4ccccc4)CC3)ccc21 :: 8.30
Cn1c(=O)sc2cc(CCCCN3CCC(c4ccccc4)CC3)ccc21 :: 8.52
Cn1c(=O)sc2cc(CCCCN3CCN(Cc4ccccc4)CC3)ccc21 :: 8.70
Cn1c(=O)sc2cc(CCN3CCN(Cc4ccc(Cl)cc4Cl)CC3)ccc21 :: 8.10
Cn1c(=O)sc2cc(CCN3CCN(Cc4ccc(Cl)c(Cl)c4)CC3)ccc21 :: 8.30

a: C[C@@H]1CN(CCCCc2ccc3c(c2)sc(=O)n3C)C[C@H](C)N1
b: Cn1c(=O)sc2cc(CCCCN3CCC(Cc4ccccc4)CC3)ccc21
stdin: Dear colleague, could you let me know whether a or b has the lower recorded pKi? Thanks. Respond using the label that marks the chosen record.
stdout: a
(a: 7.00, b: 8.30)

* * *

- STUDY_TARGET: Muscarinic acetylcholine receptor M1 (Rattus norvegicus, UniProt P08482)
- MEASUREMENT_PROTOCOL: In vitro binding affinity towards Muscarinic acetylcholine receptor M1 by displacing [3H]- telenzepine from rat brain membrane
MEASUREMENT_LABEL: pKi
Scale note: pKi = -log10(concentration in M).

Given the compound "Cn1c(=O)sc2cc(CCCCN3CCC(Cc4ccccc4)CC3)ccc21" and test system Muscarinic acetylcholine receptor M1 (Rattus norvegicus, UniProt P08482), the measured pKi is 6.70

* * *

- MEASUREMENT_PROTOCOL: Binding affinity ratio towards sigma receptor compared to the 5-hydroxytryptamine 1A receptor
MEASUREMENT_LABEL: Ratio

Please review the following examples before continuing.
Cn1c(=O)sc2cc(CCCCN3CCC(c4ccccc4)CC3)ccc21 :: 0.3
Cn1c(=O)sc2cc(CCN3CCN(Cc4ccc(Cl)cc4Cl)CC3)ccc21 :: 0.08
Cn1c(=O)sc2cc(CCN3CCN(Cc4ccccc4)CC3)ccc21 :: 0.1
Cn1c(=O)sc2cc(CCN3CCC(Cc4ccccc4)CC3)ccc21 :: 1.25
Cn1c(=O)sc2cc(CCN3CCN(Cc4ccc(Cl)c(Cl)c4)CC3)ccc21 :: 0.17

A: Cn1c(=O)sc2cc(CCCCN3CCC(Cc4ccccc4)CC3)ccc21
B: Cn1c(=O)sc2cc(CCCCN3CCN(Cc4ccc(Cl)cc4Cl)CC3)ccc21
stdin: Which has the higher Ratio, A or B ? Respond using the label that marks the chosen record.
stdout: A
(A: 0.17, B: 0.04)

* * *

- STUDY_TARGET: Muscarinic acetylcholine receptor M1 (Rattus norvegicus, UniProt P08482)
- Sequence (P08482 whole entry): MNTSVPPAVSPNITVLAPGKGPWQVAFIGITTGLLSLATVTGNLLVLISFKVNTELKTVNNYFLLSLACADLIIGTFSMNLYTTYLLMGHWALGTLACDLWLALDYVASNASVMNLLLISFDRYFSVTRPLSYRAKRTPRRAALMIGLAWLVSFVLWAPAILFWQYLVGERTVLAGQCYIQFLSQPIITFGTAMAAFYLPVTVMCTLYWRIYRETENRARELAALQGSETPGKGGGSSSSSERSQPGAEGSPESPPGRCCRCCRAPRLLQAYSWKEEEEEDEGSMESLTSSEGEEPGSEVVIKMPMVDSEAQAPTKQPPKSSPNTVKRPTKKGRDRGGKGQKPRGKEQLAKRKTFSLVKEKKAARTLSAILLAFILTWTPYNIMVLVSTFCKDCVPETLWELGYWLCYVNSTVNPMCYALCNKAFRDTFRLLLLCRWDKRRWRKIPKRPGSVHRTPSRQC
- MEASUREMENT_PROTOCOL: In vitro binding affinity towards Muscarinic acetylcholine receptor M1 by displacing [3H]- telenzepine from rat brain membrane
MEASUREMENT_LABEL: Ki

C[C@@H]1CN(CCCCc2ccc3c(c2)sc(=O)n3C)C[C@H](C)N1 :: > 100 µM
C[C@@H]1CN(CCc2ccc3c(c2)sc(=O)n3C)C[C@H](C)N1 :: > 10 µM

Now look at this entry.
Measured Ki of "Cn1c(=O)sc2cc(CCCCN3CCN(Cc4ccc(Cl)cc4Cl)CC3)ccc21" : < 10 µM
